conditions: in tert-butylamine, 313.2 K
assay-readout: solubility (mole fraction)

Exercise: Please report solubility (mole fraction) for the following molecule: CC(C)(C)NSc1nc2ccccc2s1
Key: 0.198

====

conditions: in tert-butylamine, 288.2 K
assay-readout: solubility (mole fraction)
Answer with the value's number alone.

Exercise: Please report solubility (mole fraction) for the following compound: CC(C)(C)NSc1nc2ccccc2s1
Key: 0.124

====

conditions: in tert-butylamine, 293.2 K
assay-readout: solubility (mole fraction)
Answer with the value's number alone.

Exercise: Please report solubility (mole fraction) for the following compound: CC(C)(C)NSc1nc2ccccc2s1
Key: 0.135

====

details: in toluene, 313.2 K
assay-readout: solubility (mole fraction)
Answer with the value's number alone.

Exercise: Please report solubility (mole fraction) for the following molecule: CC(C)(C)NSc1nc2ccccc2s1
Key: 0.122
